- Tested on: HMC 1-8 low-A1 cells, caspase-3/7 luminescence, 3 h
- test summary: caspase activation in low-A1 HMC 1-8 cells, dose response, counter-screen for A1 inhibitor project, cell-based, caspase luminescence (AID 449755)
Records with an inconclusive call do not appear. The source made the active and inactive calls.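 How the source made its calls: active means compounds raising caspase signal whose fitted AC50 is at most ten times the top tested dose; inconclusive means flat fit with 30 to 70% activity, or failed fit; inactive means the rest.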
Choose one outcome from this list and give only that: active, inactive

Solved cases below.
# compound, measured on, assigned class
measured = [
    ("COc1ccc(-c2c(C#N)c(N)nc(Sc3ccc(Cl)cc3)c2C#N)cc1", "HMC 1-8 low-A1 cells, caspase-3/7 luminescence, 3 h", "inactive"),
    ("CC1=NNC(=O)/C1=C\\c1cn(-c2ccccc2)nc1-c1cccs1", "HMC 1-8 low-A1 cells, caspase-3/7 luminescence, 3 h", "inactive"),
    ("CC(C)(C)c1ccc(C(=O)Nc2ccc(O)c3c(=O)cc(-c4cccc(Cl)c4)oc23)cc1", "HMC 1-8 low-A1 cells, caspase-3/7 luminescence, 3 h", "inactive"),
]

Ask: Call for entry c1ccc(-c2sc3ccccc3c2-c2ccc(OCCN3CCCC3)cc2)cc1 :
Reply: inactive

Ask: Call for entry COc1cc(NC(=O)c2ccc(Cl)cc2Cl)ccc1-c1cc2ccccc2oc1=O :
Reply: inactive

Ask: Call for entry Oc1ccc(/C=N/N2CCN(C3c4ccccc4-c4ccccc43)CC2)cc1O :
Reply: inactive

Ask: Call for entry Cc1ccc(CS(=O)(=O)c2ncc(Cl)c(C(=O)Nc3nnc(C(C)C)s3)n2)cc1 :
Reply: inactive

Ask: Call for entry COc1cc(-c2cc(-c3ccccc3)nc(SCC(=O)Nc3nccs3)c2C#N)cc(OC)c1OC :
Reply: inactive

Ask: Call for entry CC(C)(C)c1ccc2c(c1)OC(C(=O)N/N=C\c1ccc[nH]1)CO2 (stereo unspecified) :
Reply: inactive

Ask: Call for entry Cc1cccc(Nc2nc(N)c([N+](=O)[O-])c(N3CCCC(C)C3)n2)c1 (stereo unspecified) :
Reply: inactive

Ask: Call for entry CCC1CCCCN1S(=O)(=O)c1ccc(NC(=O)c2nc(S(C)(=O)=O)ncc2Cl)cc1 (stereo unspecified) :
Reply: inactive

Ask: Call for entry O=C1C2C3C=CC(CO)(O3)C2C(=O)N1c1ccc(-c2ccccc2)cc1 (stereo unspecified) :
Reply: inactive

Ask: Call for entry O=C(COc1ccc(/C=N/NC(=O)c2cc3ccccc3o2)cc1Cl)Nc1ccccc1 :
Reply: active

Ask: Call for entry CCOC(=O)C1=C(c2ccccc2)O/C(=C(/C#N)C(F)(F)F)S1 :
Reply: inactive
